Entry source: PubChem BioAssay AID298

- System: MX-1 breast xenograft, intrarenal, nude mice, tumor weight
- assay_details: NCI In Vivo Anticancer Drug Screen. Data for tumor model Human Mammary Carcinoma MX-1 Xenograft (intrarenal inoculation) in NU/NU BALB/C (nude) mice
- condition_notes: endpoint: mean tumor weight change; dose: 600.0 mg/kg/injection; schedule: Q04DX003 (ip); vehicle: saline with Tween-80; higher = larger tumour
Inconclusive results are not listed.
endpoint_name: T/C

Example cases with answers are listed next.
S=C(NCNC(=S)c1ccncc1)c1ccncc1; 40 % of control
CNC(=O)Oc1ccc(S(=O)(=O)c2ccc(OC(=O)NC)cc2)cc1; 33 % of control
CNc1ncn(-c2c(C)cccc2C)c(=O)n1; 25 % of control
Nc1ccn(C2CC(N)C(CO)O2)c(=O)n1 (stereo not given); 82 % of control
Cc1cc2c(C(C)C)c(O)c(O)c(C=NCCO)c2c(O)c1-c1c(C)cc2c(C(C)C)c(O)c(O)c(C=NCCO)c2c1O; 97 % of control

The compound listed as COC1=C(OC)C(=O)C(SC/C=C(\C)CCCC(C)CCCC(C)CCCC(C)C)=CC1=O (stereo not given) shows T/C equal to 61 % of control

The compound listed as O=C(Nc1cc(Cl)ccc1C(=O)O)c1cccc(C[n+]2ccccc2)c1 shows T/C equal to 82 % of control

The compound listed as CCCCCCCCCCCCCCCCCCOCC(CO)OC (stereo not given) shows T/C equal to 81 % of control

The compound listed as O=C1c2ccccc2C(Cl)(c2ccc(Cl)cc2)c2ccc(Cl)cc21 (stereo not given) shows T/C equal to 48 % of control

The compound listed as CC1C(c2ccccc2)OC(N2CCOCC2)C(C)(C)CN1C (stereo not given) shows T/C equal to 82 % of control

The compound listed as C[n+]1c(-c2ccc(/C=N/NC(=O)c3ccc(C(=O)N/N=C/c4ccc(-c5cn6ccccc6[n+]5C)cc4)cc3)cc2)cn2ccccc21 shows T/C equal to 69 % of control

---

- Test system: MX-1 breast xenograft, intrarenal, nude mice, tumor weight
- assay_details: NCI In Vivo Anticancer Drug Screen. Data for tumor model Human Mammary Carcinoma MX-1 Xenograft (intrarenal inoculation) in NU/NU BALB/C (nude) mice
- condition_notes: endpoint: mean tumor weight change; dose: 37.5 mg/kg/injection; schedule: Q04DX003 (sc); vehicle: saline with Tween-80; higher = larger tumour
Records with an inconclusive call do not appear.
Recorded T/C values for a group of molecules are listed next.

Example cases with answers are listed next.
CC(=O)N(C)O; 98 % of control
CCc1nc(N)nc(N)c1-c1ccc(Cl)c([N+](=O)[O-])c1; 71 % of control
c1ccc2c(c1)-c1ccccc1C1NC21 (stereo unspecified); 60 % of control
CCOC1=Cc2c(oc3c(C(C)(C)C)cc(OCC)cc23)OC(C(C)(C)C)=C1; 94 % of control
CN1CCN(c2ccc([N+](=O)[O-])c3no[n+]([O-])c23)CC1; 117 % of control

// molecule Nc1ccc(Cn2ccc3c4c(N)nc(N)nc4ccc32)cc1 , assay MX-1 breast xenograft, intrarenal, nude mice, tumor weight, T/C value: 75 % of control

---

- Test system: MX-1 breast xenograft, intrarenal, nude mice, tumor weight
- assay_details: NCI In Vivo Anticancer Drug Screen. Data for tumor model Human Mammary Carcinoma MX-1 Xenograft (intrarenal inoculation) in NU/NU BALB/C (nude) mice
- condition_notes: endpoint: mean tumor weight change; dose: 300.0 mg/kg/injection; schedule: Q04DX003 (sc); vehicle: Klucel (hydroxypropylcellulose) (HPC); higher = larger tumour
Results filed as inconclusive are left out.
Recorded T/C values for a group of compounds are listed next.

The compound listed as COC(=O)Nc1cn2cc(C(=O)c3cccs3)ccc2n1 shows T/C equal to 70 % of control

The compound listed as Nc1nc(N)c2cc(CNc3ccc(C(=O)NC(CC(=O)O)CC(=O)O)cc3)ccc2n1 shows T/C equal to 86 % of control

The compound listed as C=C(C)C(=O)O[C@H]1CC2=C[C@@H](C[C@@]3(C)O[C@@H]3[C@H]3OC(=O)C(=C)[C@@H]31)OC2=O shows T/C equal to 72 % of control

The compound listed as Cc1cc(N/N=C/c2ccccn2)nc2ccccc12 shows T/C equal to 74 % of control

The compound listed as CC1(C)CC(=O)C(CSC(=O)c2ccccc2)C(=O)C1 shows T/C equal to 101 % of control

The compound listed as CC1=CC(=Nc2ccc(N(CCCl)CCCl)cc2)C=C(C)C1=O shows T/C equal to -11 % of control

The compound listed as Cc1ccc(S(=O)(=O)NC(=O)C2C(=O)CC3(CCCCC3)CC2=O)cc1 shows T/C equal to 81 % of control

The compound listed as COc1ccc2ccccc2c1C1NC(=O)c2ccccc2N1 (configuration not stated) shows T/C equal to 79 % of control

The compound listed as Cc1nn(CCO)c(C)c1N=[N+]([O-])c1c(C)nn(CCO)c1C shows T/C equal to 109 % of control
